pIC50: −log10 of the molar value.
pIC50 values for Poly [ADP-ribose] polymerase tankyrase-2 (Homo sapiens), compiled from several publications.

GET /value?item= CN1c2ccccc2C(=O)NC1c1c[nH]nc1-c1ccc(-c2ccc(N3CCNCC3)cc2)cc1 (stereo not drawn) &field=pIC50 returns 7.70 to 8.30

GET /value?item= "CN1CCCc2c1nc(N1CCC3(CC1)C(=O)N(CC(F)(F)F)c1cc(OCC(=O)O)cc(F)c13)[nH]c2=O" &field=pIC50 returns > 7.70

GET /value?item= CCN1c2ccccc2C(=O)NC1c1c[nH]nc1-c1ccc(C(=O)OC)cc1 (stereo not drawn) &field=pIC50 returns 7.30 to 7.70

GET /value?item= COc1ccc(-c2n[nH]nc2C2NC(=O)c3ccccc3N2C)cc1 (stereo not drawn) &field=pIC50 returns > 7.70

GET /value?item= "Cn1nc2ccccc2c1C(=O)N[C@H]1CC[C@H](C(=O)Nc2ccc(F)cc2Cl)CC1" &field=pIC50 returns < 5.00

GET /value?item= "O=C(N[C@H]1CC[C@H](C(=O)Nc2ccc(F)cc2Cl)CC1)c1n[nH]c2ccc(F)cc12" &field=pIC50 returns < 5.00

====

IC50 values for Poly [ADP-ribose] polymerase tankyrase-2 (Homo sapiens, UniProt Q9H2K2), compiled from several publications.
Response field label: string, one of t (IC50 strictly below 30 nM) or f.

Would you kindly verify if IC50 of "Cn1ncc2c(=O)[nH]c(N3CCC(c4ccc(F)cc4)CC3)nc21" is strictly less than 30 nM?
f

Would you kindly verify if IC50 of "O=c1[nH]c(-c2cc(F)c(-c3ccc(Br)nc3)c(F)c2)nc2c1CSCC2" is strictly less than 30 nM?
t

Would you kindly verify if IC50 of "O=C(NC1CC1)c1nc[nH]c1C(=O)N[C@H]1CC[C@@]2(CCCN(c3cc(F)c(F)cc3Cl)C2=O)CC1" is strictly less than 30 nM?
t

Would you kindly verify if IC50 of "O=C(NCC(F)(F)F)c1nc[nH]c1C(=O)N[C@H]1CC[C@@]2(CCN(c3cccc(Cl)c3)C2=O)CC1" is strictly less than 30 nM?
f

Would you kindly verify if IC50 of "COc1ccc(Cl)c(N2CC[C@]3(CC[C@@H](NC(=O)c4cnn5cccnc45)CC3)C2=O)c1" is strictly less than 30 nM?
t
